tgt: CDK1/cyclin B (Homo sapiens, UniProt P06493)
Sequence (P06493 whole entry): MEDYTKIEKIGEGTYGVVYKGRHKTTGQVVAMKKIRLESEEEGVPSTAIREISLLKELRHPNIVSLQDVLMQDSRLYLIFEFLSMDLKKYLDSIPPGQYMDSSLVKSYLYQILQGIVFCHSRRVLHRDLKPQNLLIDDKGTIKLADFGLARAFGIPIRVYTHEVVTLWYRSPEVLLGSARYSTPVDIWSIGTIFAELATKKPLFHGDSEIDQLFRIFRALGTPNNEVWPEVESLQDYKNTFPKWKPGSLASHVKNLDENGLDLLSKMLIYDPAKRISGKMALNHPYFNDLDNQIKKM
Sequence (P14635 whole entry partner): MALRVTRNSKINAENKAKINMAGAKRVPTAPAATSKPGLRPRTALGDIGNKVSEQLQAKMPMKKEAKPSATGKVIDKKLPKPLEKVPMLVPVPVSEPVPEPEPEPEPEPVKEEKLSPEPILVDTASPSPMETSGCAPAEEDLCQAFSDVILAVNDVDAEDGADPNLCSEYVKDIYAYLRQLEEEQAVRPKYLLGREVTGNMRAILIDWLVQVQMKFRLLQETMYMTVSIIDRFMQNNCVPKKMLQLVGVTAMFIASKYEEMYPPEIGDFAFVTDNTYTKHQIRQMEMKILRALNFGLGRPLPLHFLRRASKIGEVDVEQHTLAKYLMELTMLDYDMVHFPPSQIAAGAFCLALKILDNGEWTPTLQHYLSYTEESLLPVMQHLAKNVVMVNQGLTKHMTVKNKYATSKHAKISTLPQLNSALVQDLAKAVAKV
assay-comment: CDK1 inhibition, Kinase-Glo Luminescent Kinase Assay
quantity-measured: IC50 (nM)

molecule: Cl.NCc1cccc(-c2nc(Nc3ccc(S(N)(=O)=O)cc3)nc3[nH]cnc23)c1 [Compound 11l]
recorded-number: 120

a = Cl.NCc1cccc(-c2nc(Nc3cccc([N+](=O)[O-])c3)nc3[nH]cnc23)c1 [Compound 11c]
b = CNS(=O)(=O)c1ccc(Nc2nc(-c3cccc(CN)c3)c3nc[nH]c3n2)cc1.Cl [Compound 11p]
Request: Please indicate which item has the smaller measured IC50: a versus b Reply with the label of the item you choose.
Result: b

Source of measurements: paper PMC9110766
